The measurements presented in this section are drawn from PubChem BioAssay AID1996.

CONDITIONS_USED: buffer; pH 7.4; 200.0 µM
PARAMETER: solubility kinetic (µg/mL)
API: value field is a number in µg/mL; no unit string.

Before answering, review these 4 worked examples.
Query :: Field request: solubility kinetic | item: CN1CCN(CC(O)COc2ccccc2)CC1 (configuration not stated)
Result :: 33.4

Query :: Same thing, different compound: COc1ccc(/C=C/C(=O)NC2CC3CCC2C3)cc1 (configuration not stated)
Result :: 6.9

Query :: Can you check Cc1ccc(NC(=O)COC(=O)c2ccc(NC(=O)CC#N)cc2)cc1S(=O)(=O)N1CCOCC1 next?
Result :: 23.6

Query :: # repeat for Cc1cccn2c(=O)nc(SCC(=O)N3CC(C)OC(C)C3)nc12 (configuration not stated)
Result :: 51.7

Others:
Query :: Entry under review: O=S(=O)(c1ccc(Br)cc1)N1CCCc2ccccc21 . Reported solubility kinetic?
Result :: 1.6

Query :: Now this one: O=C(Cc1c(F)cccc1Cl)Nc1nc2ccccc2s1
Result :: 0.8

Query :: O=C(CN1CCN(c2ccc(O)cc2)CC1)N1CCc2ccccc21 ?
Result :: 5
